Recorded values, source ChEMBL document CHEMBL1130513.

- Organism: Rattus norvegicus
- assay.overview: In vitro inhibitory effect on D-Galactosamine induced cytotoxicity in primary cultured rat hepatocytes at 30 ug/mL
- Format: functional
- measurement.conditions: Hepatocyte
property.label: inhibition at 30 µg/mL (%)
Entry rule: numbers only, all in %.

Worked cases, inhibition at 30 µg/mL given:
compound	unit.of.measurement	observed
C[C@@H]1O[C@@H](O[C@@H]2[C@H](O)[C@@H](O)[C@H](OC3CC[C@@]4(C)C(CC[C@]5(C)[C@@H]4[C@H](O)C=C4C6CC(C)(C)CC[C@]6(CO)[C@@H](O)C[C@]45C)C3(C)C)O[C@@H]2CO[C@@H]2O[C@H](CO)[C@@H](O)[C@H](O)[C@H]2O)[C@H](O)[C@H](O)[C@H]1O (stereo partly drawn)	%	-6.5
C[C@@H]1O[C@@H](O[C@H]2[C@@H](O)[C@@H](CO[C@@H]3O[C@H](CO)[C@@H](O)[C@H](O)[C@H]3O)O[C@@H](OC3CC[C@@]4(C)C(CC[C@]5(C)C4C=CC4=C6C[C@@](C)(CO)CC[C@]6(CO)[C@H](O)C[C@]45C)[C@]3(C)CO)[C@@H]2O)[C@H](O)[C@H](O)[C@H]1O (stereo partly drawn) [BUPLEUROSIDE XII]	%	0.8

Okay, next one:
input: inhibition at 30 µg/mL lookup needed for C[C@H]1O[C@@H](O[C@H]2CC[C@@]3(C)C(CC[C@]4(C)C3C=C[C@]35OC[C@@]6(CCC(C)(C)CC63)[C@@H](O)C[C@]54C)[C@]2(C)CO)[C@H](O)[C@@H](O[C@@H]2O[C@H](CO)[C@@H](O)[C@H](O)[C@H]2O[C@@H]2O[C@H](CO)[C@@H](O)[C@H](O)[C@H]2O)[C@H]1O (stereo partly drawn) [BUPLEUROSIDE I] , thanks.
output: -12.2
